assay: NCI Yeast Anticancer Drug Screen. Data for the sgs1 mgt1 strain (AID 161);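 also: 0% = growth of cultures given vehicle only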; conditions: S. cerevisiae sgs1 mgt1 strain, at 50.0 µM, hits give high values
The panel holds about 79,000 compounds, 15% with a hit somewhere; the sample as a whole holds those more often.
quantity kind: growth inhibition (%)
Numeric answer only, unit % assumed.

Ask: Kindly indicate its recorded growth inhibition. Item: COc1ccc(CN(C)C)c(C(O)c2ccccc2)c1 (centres undefined)
Reply: 0.7

Ask: Kindly indicate its recorded growth inhibition. Item: "CCN(CC)CCOC(=O)Cc1cccc2c(=O)cc(-c3ccc(OC)cc3)oc12"
Reply: -12.4

Ask: Kindly indicate its recorded growth inhibition. Item: "C[N+](C)(C)CCCOC1=Nc2ccccc2O/C1=C/c1ccccc1"
Reply: -6.3

Ask: Kindly indicate its recorded growth inhibition. Item: OC(CNCCc1ccccc1)COc1cccc2ccccc12 (centres undefined)
Reply: 96.9

Ask: Kindly indicate its recorded growth inhibition. Item: "CCCCN(CC)C(=O)C(=O)Cc1nc2ccc(C(=O)c3ccccc3)cc2[nH]c1=O"
Reply: -4.2

Ask: Kindly indicate its recorded growth inhibition. Item: "O=C(/C=C/c1ccccc1)N/N=C/c1ccncc1"
Reply: 1.6

Ask: Kindly indicate its recorded growth inhibition. Item: CC(C)(C)C1CCC2c3c([nH]c4ccccc34)C3C(=O)N(c4ccccc4[N+](=O)[O-])C(=O)C3C2C1 (centres undefined)
Reply: -18.6

Ask: Kindly indicate its recorded growth inhibition. Item: "O=C(/C=C(/CC(O)(c1ccccc1)c1ccccc1)Nc1ccccc1)c1ccccc1"
Reply: -6.4

Ask: Kindly indicate its recorded growth inhibition. Item: O=S(Cc1ccccc1)c1ccccc1Cn1cccc1 (centres undefined)
Reply: -19.6

Ask: Kindly indicate its recorded growth inhibition. Item: "NNC(=O)NN1C(=O)c2cc(S(=O)(=O)O)cc3c(N)c(S(=O)(=O)O)cc(c23)C1=O"
Reply: 14.6

Ask: Kindly indicate its recorded growth inhibition. Item: "CCO/N=C(\N)c1ccccc1"
Reply: -2.5

Ask: Kindly indicate its recorded growth inhibition. Item: "COc1cc([N+](=O)[O-])cc(C=O)c1O"
Reply: 0.7

Ask: Kindly indicate its recorded growth inhibition. Item: "Cc1ccc(C(C)C)cc1O"
Reply: 19.1

Ask: Kindly indicate its recorded growth inhibition. Item: "CC(C)CCNC(=O)CS(=O)(=O)c1ccc(N)cc1"
Reply: -11.9

---

test: NCI Yeast Anticancer Drug Screen. Data for the cln2 rad14 strain (AID 165);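 also: 0% = growth equal to vehicle treated cultures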; conditions: S. cerevisiae cln2 rad14 strain, at 50.0 µM, hits give high values
The panel holds about 79,000 compounds, 15% with a hit somewhere; the sample as a whole holds those more often.
quantity kind: growth inhibition (%)
Numeric answer only, unit % assumed.

Ask: Kindly indicate its recorded growth inhibition. Item: "Fc1nc(F)nc(-c2c3ccccc3c3n2CCS3)n1"
Reply: 15.3

Ask: Kindly indicate its recorded growth inhibition. Item: COC(=O)C1=C(C)N(NC(=O)c2ccccc2)C2(O)CCCC(=O)C12C (stereo not drawn)
Reply: -29.6

Ask: Kindly indicate its recorded growth inhibition. Item: "O=C(O)CCSC1=CC(=O)C(SCCC(=O)O)=CC1=O"
Reply: -75.7

Ask: Kindly indicate its recorded growth inhibition. Item: "O=C(/C=C/c1ccccc1)OCCCl"
Reply: -14.1

Ask: Kindly indicate its recorded growth inhibition. Item: CC(C)CSCC1OC(n2cnc3c(N)nccc32)C(O)C1O (stereo not drawn)
Reply: 10

Ask: Kindly indicate its recorded growth inhibition. Item: "Cc1cc(O)c(/C=N/C(=O)NN)c(=O)o1"
Reply: -22.4

Ask: Kindly indicate its recorded growth inhibition. Item: "N#Cc1c2nc3ccccc3nc2n2ccc3ccccc3c12"
Reply: -13.1

Ask: Kindly indicate its recorded growth inhibition. Item: CN(CCO)CCC1COc2ccccc2O1 (stereo not drawn)
Reply: 12.1
